Attribute: Emax
tested.on: Metabotropic glutamate receptor 5 (Homo sapiens)
Sequence (P41594 21-1212 limits assumed): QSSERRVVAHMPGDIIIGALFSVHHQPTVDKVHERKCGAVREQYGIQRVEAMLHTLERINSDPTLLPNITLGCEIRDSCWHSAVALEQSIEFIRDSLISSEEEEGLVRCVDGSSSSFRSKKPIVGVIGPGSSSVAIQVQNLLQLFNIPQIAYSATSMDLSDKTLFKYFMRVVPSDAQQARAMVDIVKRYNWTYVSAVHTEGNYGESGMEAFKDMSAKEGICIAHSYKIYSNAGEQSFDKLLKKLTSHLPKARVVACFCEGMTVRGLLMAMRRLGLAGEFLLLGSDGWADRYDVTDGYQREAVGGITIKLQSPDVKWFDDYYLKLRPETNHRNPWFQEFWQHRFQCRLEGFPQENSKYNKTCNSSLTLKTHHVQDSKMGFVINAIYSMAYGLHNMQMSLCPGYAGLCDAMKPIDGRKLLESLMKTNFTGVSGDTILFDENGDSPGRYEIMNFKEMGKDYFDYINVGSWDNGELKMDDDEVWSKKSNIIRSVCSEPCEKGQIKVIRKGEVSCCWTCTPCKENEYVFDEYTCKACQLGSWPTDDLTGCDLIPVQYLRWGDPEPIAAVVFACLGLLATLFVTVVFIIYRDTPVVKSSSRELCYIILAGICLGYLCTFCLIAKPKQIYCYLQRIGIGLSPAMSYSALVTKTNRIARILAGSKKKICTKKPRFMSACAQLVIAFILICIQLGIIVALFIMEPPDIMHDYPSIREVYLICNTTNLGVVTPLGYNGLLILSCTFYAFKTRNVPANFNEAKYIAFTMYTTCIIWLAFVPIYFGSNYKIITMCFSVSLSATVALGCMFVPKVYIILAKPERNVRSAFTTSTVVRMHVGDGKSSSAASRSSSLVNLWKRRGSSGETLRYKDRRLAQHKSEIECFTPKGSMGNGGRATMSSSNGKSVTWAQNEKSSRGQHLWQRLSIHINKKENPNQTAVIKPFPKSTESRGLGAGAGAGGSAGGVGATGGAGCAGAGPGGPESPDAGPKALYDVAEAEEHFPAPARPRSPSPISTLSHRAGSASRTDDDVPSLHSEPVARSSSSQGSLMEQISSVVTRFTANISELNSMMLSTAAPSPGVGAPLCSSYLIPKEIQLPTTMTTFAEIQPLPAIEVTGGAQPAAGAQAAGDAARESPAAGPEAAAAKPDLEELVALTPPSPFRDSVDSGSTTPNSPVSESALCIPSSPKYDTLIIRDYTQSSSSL
test.method.notes: Positive allosteric modulation of human mGlu5 receptor expressed in HEK293 cells assessed as potentiation of L-glutamate-induced activity after 1 hr by FLIPR assay relative to control
Assay type: cell-based

>  <compound>
CC1CC1C(=O)N1CCc2nc(C#Cc3ccccc3)sc2C1 (stereo unspecified)

>  <Emax / %>
42

$$$$
>  <compound>
Cc1nc(C(=O)N2CCc3nc(C#Cc4ccccc4)sc3C2)cs1

>  <Emax / %>
110

$$$$
>  <compound>
O=S(=O)(C1CCCCC1)N1CCc2nc(C#Cc3ccccc3)sc2C1

>  <Emax / %>
-17

$$$$
>  <compound>
O=C(c1cccc(F)c1)N1CCc2nc(C#Cc3ccccc3)sc2C1

>  <Emax / %>
160

$$$$
>  <compound>
O=C(C1CCOC1)N1CCc2nc(C#Cc3ccccc3)sc2C1 (stereo unspecified)

>  <Emax / %>
96

$$$$
>  <compound>
O=C1NCCc2nc(C#Cc3cccnc3)sc21

>  <Emax / %>
120

$$$$
